The following binders are listed with their measured % bound values.
Target: T1, rat collagen, acid soluble, type I, rat tail (Upstate 08-115) (rat, UniProt P02454 152-1207; P02466 86-1125)
T1 construct: tissue extract, gelled and dried in wells; also called dried rat collagen
T1 sequence (P02454 152-1207, chain 1 of 2): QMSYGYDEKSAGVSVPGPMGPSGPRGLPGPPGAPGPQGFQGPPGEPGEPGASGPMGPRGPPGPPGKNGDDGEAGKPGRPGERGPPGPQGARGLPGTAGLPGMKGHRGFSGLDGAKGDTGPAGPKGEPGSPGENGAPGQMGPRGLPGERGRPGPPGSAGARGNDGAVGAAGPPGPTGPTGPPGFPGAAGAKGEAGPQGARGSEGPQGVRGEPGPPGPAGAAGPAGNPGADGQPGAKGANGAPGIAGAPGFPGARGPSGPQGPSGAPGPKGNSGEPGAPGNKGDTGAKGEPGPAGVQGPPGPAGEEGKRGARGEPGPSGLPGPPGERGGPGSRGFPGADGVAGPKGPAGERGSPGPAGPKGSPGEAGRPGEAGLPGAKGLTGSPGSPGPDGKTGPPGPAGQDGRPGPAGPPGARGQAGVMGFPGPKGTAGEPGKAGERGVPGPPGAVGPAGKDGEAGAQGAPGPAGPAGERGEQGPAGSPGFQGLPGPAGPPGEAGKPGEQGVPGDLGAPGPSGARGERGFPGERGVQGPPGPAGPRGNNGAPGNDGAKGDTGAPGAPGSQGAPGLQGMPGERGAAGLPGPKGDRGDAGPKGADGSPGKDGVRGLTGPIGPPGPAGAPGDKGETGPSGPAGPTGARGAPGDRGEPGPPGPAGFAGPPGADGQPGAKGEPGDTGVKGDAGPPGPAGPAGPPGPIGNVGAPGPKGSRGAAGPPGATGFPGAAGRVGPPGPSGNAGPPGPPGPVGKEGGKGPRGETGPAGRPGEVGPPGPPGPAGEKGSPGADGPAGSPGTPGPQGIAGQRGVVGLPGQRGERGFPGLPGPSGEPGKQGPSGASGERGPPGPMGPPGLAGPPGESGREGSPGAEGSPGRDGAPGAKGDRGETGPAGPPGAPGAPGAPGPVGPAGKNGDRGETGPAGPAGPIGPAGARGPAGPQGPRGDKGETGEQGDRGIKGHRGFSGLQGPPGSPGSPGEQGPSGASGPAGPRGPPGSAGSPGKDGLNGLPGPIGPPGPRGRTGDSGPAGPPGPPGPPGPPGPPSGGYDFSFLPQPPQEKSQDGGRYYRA
T1 sequence (P02466 86-1125, chain 2 of 2): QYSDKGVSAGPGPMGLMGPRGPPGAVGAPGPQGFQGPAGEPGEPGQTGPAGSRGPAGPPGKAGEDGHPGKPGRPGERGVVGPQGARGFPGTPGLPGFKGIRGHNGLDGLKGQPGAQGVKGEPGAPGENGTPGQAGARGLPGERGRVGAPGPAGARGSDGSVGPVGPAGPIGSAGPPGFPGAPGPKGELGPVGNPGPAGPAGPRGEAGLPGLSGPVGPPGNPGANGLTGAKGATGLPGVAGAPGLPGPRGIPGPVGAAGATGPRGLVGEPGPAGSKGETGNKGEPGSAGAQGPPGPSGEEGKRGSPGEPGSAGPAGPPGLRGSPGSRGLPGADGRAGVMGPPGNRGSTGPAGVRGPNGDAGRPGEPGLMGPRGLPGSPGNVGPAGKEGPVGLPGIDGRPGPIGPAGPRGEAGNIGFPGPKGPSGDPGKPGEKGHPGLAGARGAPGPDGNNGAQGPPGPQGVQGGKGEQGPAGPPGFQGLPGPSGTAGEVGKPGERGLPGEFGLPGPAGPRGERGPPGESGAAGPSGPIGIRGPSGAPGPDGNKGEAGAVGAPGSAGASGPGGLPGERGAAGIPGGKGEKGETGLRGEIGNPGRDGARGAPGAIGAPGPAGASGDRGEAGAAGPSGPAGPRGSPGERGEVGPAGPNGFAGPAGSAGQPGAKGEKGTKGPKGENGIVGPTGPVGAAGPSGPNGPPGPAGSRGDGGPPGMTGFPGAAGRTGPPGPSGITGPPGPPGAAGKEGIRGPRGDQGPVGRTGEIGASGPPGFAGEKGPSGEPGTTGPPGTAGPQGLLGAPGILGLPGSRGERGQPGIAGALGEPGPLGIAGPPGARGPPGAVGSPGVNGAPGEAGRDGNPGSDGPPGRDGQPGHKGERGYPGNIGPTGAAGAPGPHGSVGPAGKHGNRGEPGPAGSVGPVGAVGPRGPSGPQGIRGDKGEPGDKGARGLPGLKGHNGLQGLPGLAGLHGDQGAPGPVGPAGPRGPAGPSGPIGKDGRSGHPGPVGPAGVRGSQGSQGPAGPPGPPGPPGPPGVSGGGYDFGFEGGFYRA
Experiment: dried collagen assay
Bridge positions count the residues as written; N and C are the ends. Square brackets hold non-standard residues; d marks the D form. Primed or numbered codes have the meaning given here. Side chains are listed from the residue outwards. Ends that are not written are not given here. Tyr(3-Cl) = N[C@@H](Cc1ccc(O)c(Cl)c1)C(=O)O; Gd^T″ = GdDTPA-thiourea
attribute-measured: % bound

>>> experimental_result("{Gd^T″}-GK([Gly-Gd^T″])WHCTTYFPHYYCLYG (disulfide 5-14 (inferred)) [Compound ID 947]")
"57%"
>>> experimental_result("{Gd^T″}-DWTC[Tyr(Bn,3-Cl)]GDEYTWHCNYE (disulfide 4-13 (inferred); not fully specified (C-terminus)) [Compound ID 825]")
"63%"
>>> experimental_result("{Gd^T″}-GK([Gly-Gd^T″])WHCYTK(Gd^T″)FPHHYCVYG (disulfide 5-14 (inferred); not fully specified (C-terminus)) [Compound ID 978]")
"66%"
>>> experimental_result("{Gd^T″}-AWHCTTRFPAHYCLYG (disulfide 4-13 (inferred)) [Compound ID 937]")
"14%"
>>> experimental_result("{Gd^T″}-GQWHCTT[Tyr(3-Cl)]FPHH[dY]CLYG (disulfide 5-14 (inferred); not fully specified (C-terminus)) [Compound ID 916]")
"0%"
